Target: Leukotriene B4 receptor 2 (Homo sapiens, UniProt Q9NPC1)
Sequence (Q9NPC1 whole entry): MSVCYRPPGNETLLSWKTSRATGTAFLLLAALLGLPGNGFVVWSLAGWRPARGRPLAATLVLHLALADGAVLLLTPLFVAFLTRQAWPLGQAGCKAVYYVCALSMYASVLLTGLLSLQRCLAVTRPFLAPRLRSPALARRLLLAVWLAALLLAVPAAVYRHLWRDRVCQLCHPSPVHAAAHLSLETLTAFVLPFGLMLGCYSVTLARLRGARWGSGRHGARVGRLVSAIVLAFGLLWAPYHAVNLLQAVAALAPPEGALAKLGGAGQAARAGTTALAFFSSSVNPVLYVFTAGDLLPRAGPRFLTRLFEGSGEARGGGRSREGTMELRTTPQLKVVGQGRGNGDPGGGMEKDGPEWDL
Measurement description: Displacement of [3H]LTB4 from HA-epitope tagged human BLT2 expressed in CHOK1 cells incubated for 60 mins by liquid scintillation counting method
Format: cell-based, CHO-K1
Condition set: read-out: Kd
pKd: −log10 of the molar value.

Mol smiles	pKd
CCCCC(=O)N(Cc1ccc(-c2ccccc2C(=O)O)cc1)c1ccccc1	7.83
